- tested_system: BRG-1 (Homo sapiens, UniProt P51532)
- Sequence (P51532 whole entry): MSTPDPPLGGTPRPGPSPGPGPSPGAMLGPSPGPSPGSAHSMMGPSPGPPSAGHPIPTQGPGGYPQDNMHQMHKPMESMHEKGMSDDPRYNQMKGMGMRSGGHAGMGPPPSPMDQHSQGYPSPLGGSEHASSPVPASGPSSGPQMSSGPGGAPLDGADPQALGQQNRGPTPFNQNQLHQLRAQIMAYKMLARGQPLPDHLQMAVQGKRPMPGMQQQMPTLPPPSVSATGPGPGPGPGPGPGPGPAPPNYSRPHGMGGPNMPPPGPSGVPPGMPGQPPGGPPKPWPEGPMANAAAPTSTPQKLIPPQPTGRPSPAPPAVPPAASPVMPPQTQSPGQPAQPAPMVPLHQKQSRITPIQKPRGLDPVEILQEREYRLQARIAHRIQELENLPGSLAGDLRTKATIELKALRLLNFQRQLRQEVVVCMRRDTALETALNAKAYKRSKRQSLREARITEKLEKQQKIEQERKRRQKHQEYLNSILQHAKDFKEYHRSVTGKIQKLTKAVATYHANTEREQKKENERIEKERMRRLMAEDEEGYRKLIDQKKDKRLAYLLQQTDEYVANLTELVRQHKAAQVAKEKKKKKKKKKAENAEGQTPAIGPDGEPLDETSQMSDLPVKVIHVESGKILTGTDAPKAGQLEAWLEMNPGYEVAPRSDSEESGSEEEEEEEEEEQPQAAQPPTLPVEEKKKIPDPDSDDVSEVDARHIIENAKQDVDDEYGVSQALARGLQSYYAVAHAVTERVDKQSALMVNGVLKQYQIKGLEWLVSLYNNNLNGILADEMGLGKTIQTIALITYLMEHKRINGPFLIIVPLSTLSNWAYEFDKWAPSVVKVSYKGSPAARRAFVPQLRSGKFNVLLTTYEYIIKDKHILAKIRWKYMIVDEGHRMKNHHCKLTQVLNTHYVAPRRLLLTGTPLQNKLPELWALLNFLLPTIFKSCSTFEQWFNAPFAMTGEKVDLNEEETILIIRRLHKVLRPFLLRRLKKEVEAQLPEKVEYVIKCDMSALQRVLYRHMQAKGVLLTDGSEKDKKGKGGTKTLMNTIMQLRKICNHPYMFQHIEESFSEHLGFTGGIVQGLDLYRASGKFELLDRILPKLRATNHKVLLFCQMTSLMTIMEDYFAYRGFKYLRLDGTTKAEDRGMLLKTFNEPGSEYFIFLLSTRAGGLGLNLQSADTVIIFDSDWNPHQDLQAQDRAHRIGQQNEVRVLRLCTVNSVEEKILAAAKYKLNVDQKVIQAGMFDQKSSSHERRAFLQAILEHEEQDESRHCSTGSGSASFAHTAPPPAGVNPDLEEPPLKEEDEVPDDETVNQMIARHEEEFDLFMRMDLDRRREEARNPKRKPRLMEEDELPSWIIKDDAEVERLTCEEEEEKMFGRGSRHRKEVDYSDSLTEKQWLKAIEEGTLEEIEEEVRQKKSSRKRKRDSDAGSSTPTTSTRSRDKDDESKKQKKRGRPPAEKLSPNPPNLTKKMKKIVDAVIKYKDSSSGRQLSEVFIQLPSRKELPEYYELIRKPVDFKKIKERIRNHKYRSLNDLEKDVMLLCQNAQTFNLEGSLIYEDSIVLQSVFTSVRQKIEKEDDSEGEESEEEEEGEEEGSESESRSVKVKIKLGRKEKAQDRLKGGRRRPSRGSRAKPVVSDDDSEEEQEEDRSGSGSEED
- protocol_text: ATPase catalytic activity assay of BRG-1 (ADP-Glo)
- Assay type: biochemical
- details: ATPase catalytic activity, ADP-Glo; read-out: BRG1 Max % Inhibition
observable: Emax

compound	Emax
CC1(C#N)CCOc2ccc(C(=O)NCC(=O)Nc3nc(-c4cccc([C@@H]5CC5(F)F)n4)cs3)cc21 (stereo in doubt) [Compound 380]	> 85%
C[C@@]1(F)COCc2ccc(C(=O)NCC(=O)Nc3nc(-c4cccc(C(F)F)n4)cs3)cc21 [Compound 331]	> 95%

Measured Emax, C[C@@]1(C#N)COCc2ccc(C(=O)NCC(=O)Nc3nc(-c4cc(F)c5c(c4)CCO5)cs3)cc21 [Compound 352] : > 95%

Measured Emax, COc1cc(F)cc(-c2csc(NC(=O)C(C)NC(=O)c3ccc4c(c3)[C@](C)(F)COC4)n2)c1 (stereo in doubt) [Compound 334] : > 95%

Measured Emax, C[C@@H]1CN(c2cccc(-c3csc(NC(=O)CNC(=O)c4ccc5c(c4)CCCO5)n3)n2)C[C@H](C)O1 [Compound 370] : > 65%

Measured Emax, O=C(CNC(=O)c1cccc(C2(C(F)F)COC2)c1)Nc1nc(-c2cccc(C(F)F)c2)cs1 [Compound 344] : > 95%

Measured Emax, O=C(CNC(=O)c1ccc2c(c1)[C@@](F)(C(F)F)COC2)Nc1nc(-c2cc(F)cc(N3CCC3)c2)cs1 [Compound 277] : > 95%

Measured Emax, CN1C[C@](C)(C#N)c2cc(C(=O)NCC(=O)Nc3nc(-c4cc(F)cc(N5CCC5)c4)cs3)ccc21 [Compound 288] : > 75%

----------
IC50 values for the molecules below.
- tested_system: UniProt:P51531
- protocol_text: ATPase catalytic activity assay of BRM (ADP-Glo)
- Type: biochemical
- details: read-out: BRM IC50 (μM)*

A selection of reference data follows.
molecule	tested_system	IC50
C[C@@H]1CN(c2cccc(-c3csc(NC(=O)CNC(=O)c4ccc5c(c4)[C@](C)(CO)CC5)n3)n2)C[C@H](C)O1	UniProt:P51531	< 0.1 µM
Cn1ccc2ccc(-c3csc(NC(=O)CNC(=O)c4ccc5c(c4)C4(CCO5)COC4)n3)cc2c1=O	UniProt:P51531	0.1 to 1 µM
COc1cc(-c2csc(NC(=O)CNC(=O)c3ccc4c(c3)[C@](C)(C#N)COC4)n2)ccn1	UniProt:P51531	< 0.1 µM
C[C@@H]1CN(c2cccc(-c3csc(NC(=O)CNC(=O)c4cccc5c4OCC[C@]5(C)C#N)n3)c2)C[C@H](C)O1	UniProt:P51531	0.1 to 1 µM
C[C@@H]1CN(c2cccc(-c3csc(NC(=O)CNC(=O)c4ccc5c(c4)C(F)(F)COC5)n3)n2)C[C@H](C)O1	UniProt:P51531	< 0.1 µM

Let us move to another entry and its IC50.
Measured IC50, C[C@@]1(C#N)COCc2ccc(C(=O)NCC(=O)Nc3nc(-c4cc(F)c5c(c4)CCO5)cs3)cc21 : < 0.1 µM

----------
- tested_system: BRM (Homo sapiens, UniProt P51531)
- Sequence (P51531 whole entry): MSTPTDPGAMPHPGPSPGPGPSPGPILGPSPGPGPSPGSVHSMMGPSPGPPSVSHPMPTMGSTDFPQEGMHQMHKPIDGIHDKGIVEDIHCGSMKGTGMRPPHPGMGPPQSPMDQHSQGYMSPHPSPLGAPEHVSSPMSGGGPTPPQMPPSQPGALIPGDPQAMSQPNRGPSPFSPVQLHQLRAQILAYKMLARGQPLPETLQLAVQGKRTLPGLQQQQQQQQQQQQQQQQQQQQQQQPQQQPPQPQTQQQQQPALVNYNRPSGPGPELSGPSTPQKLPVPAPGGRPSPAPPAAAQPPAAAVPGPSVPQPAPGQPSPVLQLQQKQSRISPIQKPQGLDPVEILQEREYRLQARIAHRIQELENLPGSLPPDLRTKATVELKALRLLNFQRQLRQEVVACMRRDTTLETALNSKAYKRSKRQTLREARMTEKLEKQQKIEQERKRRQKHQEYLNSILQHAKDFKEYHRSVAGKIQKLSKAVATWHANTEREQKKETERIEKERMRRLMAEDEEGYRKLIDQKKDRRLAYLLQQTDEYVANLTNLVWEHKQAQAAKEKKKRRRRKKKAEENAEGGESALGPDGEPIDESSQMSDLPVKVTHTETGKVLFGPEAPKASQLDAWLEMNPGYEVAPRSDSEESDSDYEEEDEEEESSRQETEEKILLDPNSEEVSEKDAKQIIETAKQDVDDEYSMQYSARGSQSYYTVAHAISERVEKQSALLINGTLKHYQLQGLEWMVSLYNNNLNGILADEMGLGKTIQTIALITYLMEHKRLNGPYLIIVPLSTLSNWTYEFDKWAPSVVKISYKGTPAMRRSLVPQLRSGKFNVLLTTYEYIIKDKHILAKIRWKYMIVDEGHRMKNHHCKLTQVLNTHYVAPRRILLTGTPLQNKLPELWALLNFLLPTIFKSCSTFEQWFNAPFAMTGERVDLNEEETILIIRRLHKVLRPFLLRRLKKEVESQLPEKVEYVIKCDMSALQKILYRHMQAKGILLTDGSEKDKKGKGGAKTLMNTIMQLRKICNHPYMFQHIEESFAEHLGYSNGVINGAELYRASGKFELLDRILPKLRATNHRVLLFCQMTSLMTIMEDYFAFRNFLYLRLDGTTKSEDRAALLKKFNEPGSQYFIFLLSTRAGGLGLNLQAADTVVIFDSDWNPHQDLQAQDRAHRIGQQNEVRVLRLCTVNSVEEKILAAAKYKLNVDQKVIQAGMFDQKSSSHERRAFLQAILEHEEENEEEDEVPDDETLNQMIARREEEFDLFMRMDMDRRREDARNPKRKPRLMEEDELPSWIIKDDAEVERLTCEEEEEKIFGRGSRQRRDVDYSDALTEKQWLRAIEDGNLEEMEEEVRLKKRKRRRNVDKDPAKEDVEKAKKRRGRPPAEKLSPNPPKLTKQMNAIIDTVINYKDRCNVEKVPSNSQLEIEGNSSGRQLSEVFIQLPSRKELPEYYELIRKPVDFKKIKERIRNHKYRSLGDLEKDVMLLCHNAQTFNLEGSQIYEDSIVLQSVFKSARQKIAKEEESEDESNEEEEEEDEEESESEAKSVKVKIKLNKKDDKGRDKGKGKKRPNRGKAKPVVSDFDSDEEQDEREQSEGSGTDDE
- protocol_text: ATPase catalytic activity assay of BRM (ADP-Glo)
- Type: biochemical
observable: BRM Max % Inhibition

compound	BRM Max % Inhibition
CC(O)(c1cccc(C(=O)NCC(=O)Nc2nc(-c3cccc(-c4ccncc4)c3)cs2)c1)C(F)(F)F (centres unmarked) [Compound 78]	>80%
C[C@]1(CN)CCc2c(C(=O)NCC(=O)Nc3nc(-c4cccc(-c5ccncc5)c4)cs3)cccc21 [Compound 243]	>80%
C[C@@H]1CN(c2cccc(-c3csc(NC(=O)CNC(=O)c4cccc([C@@]5(C(F)F)CCOC5)c4)n3)c2)C[C@H](C)O1 [Compound 286]	>95%

Measured BRM Max % Inhibition, C[C@@H]1CN(c2cccc(-c3csc(NC(=O)CNC(=O)c4ccc5c(c4)C4(CC4)COC5)n3)n2)C[C@H](C)O1 [Compound 406] : >95%

Measured BRM Max % Inhibition, Cc1cc(-c2cccc(-c3csc(NC(=O)CNC(=O)c4ccc5c(c4)[C@](C)(C#N)CC5)n3)n2)ncn1 [Compound 267] : >95%

Measured BRM Max % Inhibition, CC(C)(C(N)=O)c1cccc(C(=O)NCC(=O)Nc2nc(-c3cccc(-c4ccncc4)c3)cs2)c1 [Compound 84] : >95%

Measured BRM Max % Inhibition, Cc1nccc(-c2cccc(-c3csc(NC(=O)CNC(=O)c4cccc(C(C)(C)CN)c4)n3)c2)n1 [Compound 100] : >95%

Measured BRM Max % Inhibition, Cc1nccc(-c2cccc(-c3csc(NC(=O)CNC(=O)c4cccc(S(=O)(=O)C(C)C)c4)n3)n2)n1 [Compound 121] : >95%
